Test description: self-splicing fitness, log relative to wild type (ln ratio); higher = more splicing; Tetrahymena group I intron in knt gene, E. coli kanamycin selection, DiMSum; sequences stand for … in CUCUCU…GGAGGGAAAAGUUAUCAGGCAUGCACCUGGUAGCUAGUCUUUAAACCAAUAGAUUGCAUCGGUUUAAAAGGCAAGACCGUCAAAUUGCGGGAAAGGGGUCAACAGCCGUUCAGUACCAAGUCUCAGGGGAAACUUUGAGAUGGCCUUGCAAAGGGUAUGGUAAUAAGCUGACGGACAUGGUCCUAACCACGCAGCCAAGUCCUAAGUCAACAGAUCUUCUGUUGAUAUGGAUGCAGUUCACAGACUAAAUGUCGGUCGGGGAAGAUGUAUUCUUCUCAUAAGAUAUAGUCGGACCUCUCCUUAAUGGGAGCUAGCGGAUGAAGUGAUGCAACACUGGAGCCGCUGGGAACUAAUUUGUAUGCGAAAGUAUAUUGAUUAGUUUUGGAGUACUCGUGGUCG;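 further: selection with 25 µg/mL kanamycin versus none on LB agar overnight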
Protocol conditions: 30 °C
Think of -3 as a floor: if self-splicing fitness (ln) stands on it or above, it is Yes; beneath it, No.

In [3]: df
Out[3]:
        primary_sequence  category
 0  UCCGAGCAAUAUUACGAGAC        No
 1  AAUUAGCAAUAUUACGCCUG       Yes
 2  CUGUAGCAAUAUUACGUCUG       Yes
 3  GACGAGCAAUAUUACGGCUG       Yes
 4  GUAAAGCAAUAUUACGCGAG       Yes
 5  UUGUAGCAAUAUUACGGCAG       Yes
 6  CUAUAGCAAUAUUACGUGCC       Yes
 7  GCAUAGCAAUAUUACGAAUA       Yes
 8  UAGUAGCAAUAUUACGAAUC       Yes
 9  GCUGAGCAAUAUUACGCCUC       Yes
10  CAUCAGCAAUAUUACGGUAG       Yes
11  AGAAAGCAAUAUUACGGAAU       Yes
12  AUUGAGCAAUAUUACGGCGA       Yes
13  CAUAAGCAAUAUUACGAGGU       Yes
14  UAGCAGCAAUAUUACGAGGU        No
15  CAUGAGCAAUAUUACGAGGU        No
16  CCUUAGCAAUAUUACGUGCG        No
17  GAAAAGCAAUAUUACGUAUU        No
18  GCGAAGCAAUAUUACGUAAA       Yes
19  AUUAAGCAAUAUUACGGAUU       Yes
20  AGACAGCAAUAUUACGCGAA       Yes
21  UUUUAGCAAUAUUACGACUU       Yes
22  CGGAAGCAAUAUUACGGGGA        No
23  UGGUAGCAAUAUUACGCCCU       Yes

---

Test description: self-splicing fitness, log relative to wild type (ln ratio); higher = more splicing; Tetrahymena group I intron in knt gene, E. coli kanamycin selection, DiMSum; sequences stand for … in CUCUCU…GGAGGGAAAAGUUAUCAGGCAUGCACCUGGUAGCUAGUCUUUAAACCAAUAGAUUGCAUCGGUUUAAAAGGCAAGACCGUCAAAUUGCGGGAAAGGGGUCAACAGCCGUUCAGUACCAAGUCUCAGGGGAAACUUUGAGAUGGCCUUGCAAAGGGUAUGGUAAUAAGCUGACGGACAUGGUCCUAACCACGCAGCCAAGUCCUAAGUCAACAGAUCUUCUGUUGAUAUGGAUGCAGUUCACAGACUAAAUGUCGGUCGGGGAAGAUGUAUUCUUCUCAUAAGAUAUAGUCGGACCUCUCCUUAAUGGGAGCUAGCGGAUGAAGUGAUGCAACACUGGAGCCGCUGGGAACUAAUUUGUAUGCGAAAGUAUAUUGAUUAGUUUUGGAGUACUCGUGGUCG
Protocol conditions: 30 °C
Think of -2 as a floor: if self-splicing fitness (ln) stands on it or above, it is condition met; beneath it, condition not met.

In [3]: df
Out[3]:
        primary_sequence           category
 0  CUUGAGCAAUAUUACGGCAC  condition not met
 1  CGACAGCAAUAUUACGUUUG  condition not met
 2  AGACAGCAAUAUUACGUUGU  condition not met
 3  CCCUAGCAAUAUUACGAUAU  condition not met
 4  UAGCAGCAAUAUUACGAGAG  condition not met
 5  AUUCAGCAAUAUUACGCACA      condition met
 6  CCGAAGCAAUAUUACGUUUU  condition not met
 7  UCCUAGCAAUAUUACGAAGU      condition met
 8  AUCGAGCAAUAUUACGGGGU  condition not met
 9  UUCGAGCAAUAUUACGGAAG  condition not met
10  CCGUAGCAAUAUUACGUCGA      condition met
11  CACUAGCAAUAUUACGCAAU      condition met
12  CAGUAGCAAUAUUACGGAUU  condition not met
13  UGUGAGCAAUAUUACGGUGU  condition not met
14  UCCAAGCAAUAUUACGCAAA  condition not met
15  GGUCAGCAAUAUUACGAGAC  condition not met
16  GCCAAGCAAUAUUACGCAUA      condition met
17  GUCGAGCAAUAUUACGAACA      condition met
18  UCAAAGCAAUAUUACGUCCA      condition met
19  CUGGAGCAAUAUUACGUCCU  condition not met
20  UAGAAGCAAUAUUACGAGUG      condition met
21  UUGUAGCAAUAUUACGUAAG  condition not met
22  CACCAGCAAUAUUACGGACU  condition not met
23  ACCCAGCAAUAUUACGUCUU      condition met
24  GAACAGCAAUAUUACGAAAG  condition not met
25  CGUGAGCAAUAUUACGCAAC  condition not met
26  GGGCAGCAAUAUUACGGAAU      condition met
27  UUAGAGCAAUAUUACGGCUC  condition not met
28  CAAAAGCAAUAUUACGAAGG      condition met
29  CCUUAGCAAUAUUACGGGGG  condition not met
30  UGCUAGCAAUAUUACGAGCU      condition met
31  CAAUAGCAAUAUUACGGAUU  condition not met
32  ACUCAGCAAUAUUACGUGUU  condition not met
33  CGUUAGCAAUAUUACGGGAA  condition not met
34  ACUGAGCAAUAUUACGCCCC  condition not met
35  CUUCAGCAAUAUUACGUACU  condition not met
36  GCCUAGCAAUAUUACGGGAU      condition met
37  AAUGAGCAAUAUUACGGCAU      condition met
38  ACAUAGCAAUAUUACGCCGA      condition met
39  UACCAGCAAUAUUACGGCUA      condition met
40  CCUCAGCAAUAUUACGACCA  condition not met
41  AACCAGCAAUAUUACGCCAG  condition not met
42  CAGUAGCAAUAUUACGUCGG      condition met
43  GAAGAGCAAUAUUACGCUUC  condition not met
44  GCUUAGCAAUAUUACGUCCA      condition met
45  GCAAAGCAAUAUUACGGCGA      condition met
46  AGAAAGCAAUAUUACGGGAU      condition met
47  CCCUAGCAAUAUUACGGCUA  condition not met
48  AAGUAGCAAUAUUACGCACG      condition met
49  GACGAGCAAUAUUACGGACU      condition met
50  AACUAGCAAUAUUACGCGCU      condition met
51  ACUCAGCAAUAUUACGUCAG  condition not met
52  UGACAGCAAUAUUACGGGUA      condition met
53  ACGCAGCAAUAUUACGCGUC  condition not met
54  UAGUAGCAAUAUUACGUCAU  condition not met
55  AGCAAGCAAUAUUACGGCAG      condition met
56  GAAAAGCAAUAUUACGCCCA      condition met
57  CAUCAGCAAUAUUACGCCUG      condition met
58  UGCUAGCAAUAUUACGGCCA      condition met
59  AACUAGCAAUAUUACGGAAA  condition not met
60  UAAGAGCAAUAUUACGUAUA  condition not met

---

Test description: self-splicing fitness, log relative to wild type (ln ratio); higher = more splicing; Tetrahymena group I intron in knt gene, E. coli kanamycin selection, DiMSum; sequences stand for … in CUCUCU…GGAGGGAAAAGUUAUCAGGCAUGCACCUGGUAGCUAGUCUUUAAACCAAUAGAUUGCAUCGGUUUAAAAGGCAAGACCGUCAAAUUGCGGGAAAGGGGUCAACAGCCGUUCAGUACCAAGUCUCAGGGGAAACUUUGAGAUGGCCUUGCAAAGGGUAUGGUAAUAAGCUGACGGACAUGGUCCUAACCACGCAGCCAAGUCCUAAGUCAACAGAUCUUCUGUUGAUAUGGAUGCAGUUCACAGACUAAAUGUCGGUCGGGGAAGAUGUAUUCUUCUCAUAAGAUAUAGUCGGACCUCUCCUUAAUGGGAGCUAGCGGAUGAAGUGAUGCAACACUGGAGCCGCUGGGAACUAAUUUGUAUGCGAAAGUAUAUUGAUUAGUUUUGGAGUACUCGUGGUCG
Protocol conditions: 30 °C
Think of -2 as a floor: if self-splicing fitness (ln) stands on it or above, it is MET; beneath it, NOT MET.

>>> df
       primary_sequence  category
0  ACCUAGCAAUAUUACGGGAC       MET
1  UUUAAGCAAUAUUACGCGCU       MET
2  GUGUAGCAAUAUUACGGCAU   NOT MET
